Numbers sourced from ChEMBL document CHEMBL1201862.

System: RXF 393
test description: NCI tumour cell line growth inhibition, 48 h
Active and inactive are the calls of the source. Cut-off read from the data, not from the text of the source: active = GI50 up to about 1.1 µM and inactive = higher.
reported property: GI50

Would you please look over these solved cases?
If you can, please state the reported GI50 value of NCCSC1(O)C(=O)c2ccccc2-c2ccccc21 (centres undefined) .
1.64 µM (inactive)

If you can, please state the reported GI50 value of `CC(C)(C)c1cc2c(c(C(C)(C)C)c1O)CC(=O)O2` .
22.1 µM (inactive)

Quick batch: GI50 for everything below.
1. Cc1ccc(NC(=O)c2ccc(OP(=O)(O)Nc3ccc(C)cc3)cc2)cc1
2. Cc1cc(O)nc(CNC(=O)c2cccc(C(=O)NCc3cc(O)nc(C)n3)c2)n1

1. 50.7 µM (inactive)
2. > 100 µM (inactive)

Quick batch: GI50 for everything below.
1. COc1cc2cc[n+](C)c(Cc3ccc(Oc4cc(Cc5c6cc(OC)c(OC)cc6cc[n+]5C)ccc4OC)cc3)c2cc1OC
2. Cc1ccnc2nc(-c3cccc(Cl)c3)cc(O)c12
3. CCCC1c2c(ccc3ccccc23)Oc2ccc3ccccc3c21
4. c1ccc([P+](Cc2ccc(C[P+](c3ccccc3)(c3ccccc3)c3ccccc3)cc2)(c2ccccc2)c2ccccc2)cc1
5. COc1c(C)c(C/C=C(\C)CCCC(C)CCCC(C)CCCC(C)C)c(OC)c2ccccc12 (centres undefined)
6. NC(=O)Oc1ccccc1
7. CN(C)c1ccc(/C=C/C=C(/C#N)c2ccccc2)cc1
8. c1ccc(/C(=N/Nc2cnccn2)c2ncccn2)cc1

> 100 µM (inactive)
2.77 µM (inactive)
29.1 µM (inactive)
61.4 µM (inactive)
> 100 µM (inactive)
> 100 µM (inactive)
36.8 µM (inactive)
> 100 µM (inactive)

###

Tested on: SK-OV-3
test description: NCI tumour cell line growth inhibition, 48 h
Activity calls are given as the source filed them. Cut-off read from the data, not from the text of the source: active = GI50 up to about 1.1 µM and inactive = higher.
reported property: GI50

Would you please look over these solved cases?
Tell me reported GI50 for `C[C@@H]1CC[C@]2(C(=O)O)CC[C@]3(C)C(=CC[C@@H]4[C@@]5(C)CC[C@H](O)C(C)(C)[C@@H]5CC[C@]43C)[C@@H]2[C@]1(C)O` , tested with SK-OV-3.
17.9 µM (inactive)

Tell me reported GI50 for `Cc1cc2c(=O)cc(-c3ccncc3)oc2c(C(=O)O)c1C` , tested with SK-OV-3.
> 100 µM (inactive)

Quick batch: GI50 for everything below.
1. Cc1cc2cc3ccccc3cc2c(=O)[nH]1
2. Cc1ccc(S(=O)(=O)OC(C=O)C(O)C(O)COC(c2ccccc2)(c2ccccc2)c2ccccc2)cc1 (stereo not given)
3. O=C(O)C(Oc1nc(S)nc(S)n1)(c1ccc(Cl)cc1)c1ccc(Cl)cc1
4. Cc1cc2c(C)nn(Cc3ccc(Cl)cc3)c2c(C#N)c1C
5. CC(C)(C)[Si](C)(C)OCC1OC(n2cnc3c(N)ncnc32)C(O)C1O (stereo not given)

1: > 10 µM (inactive); 2: 15 µM (inactive); 3: > 100 µM (inactive); 4: > 100 µM (inactive); 5: 30.7 µM (inactive)

Quick batch: GI50 for everything below.
1. Cc1ccc(NC(=O)/C(Cl)=C(/Cl)C(=O)O)cc1
2. CN1C/C(=C\c2ccccc2[N+](=O)[O-])C(=O)/C(=C/c2ccccc2[N+](=O)[O-])C1
3. COc1ccc(-c2nc(-c3cnccn3)n(C3OC(CO)C(O)C(O)C3O)n2)cc1 (stereo not given)
4. O=C1c2ccccc2OCC12OC21C=CC(Cl)=CC1 (stereo not given)

18.8 µM (inactive)
2.75 µM (inactive)
> 100 µM (inactive)
51.8 µM (inactive)

###

System: OVCAR-8
test description: NCI tumour cell line growth inhibition, 48 h
Activity calls are given as the source filed them. Rule as the data show it: active = GI50 up to about 1.1 µM and inactive = higher.
Answer with one of the outcomes true (1) (active), false (0) (inactive)

How did this test come out for `COc1cc(-c2nn3c(=O)n(-c4ccc(Cl)cc4)c(=O)nc3s2)cc(OC)c1OC` ?
false (0)

---
How did this test come out for `S=C(S)NCNC(=S)S` ?
false (0)

How did this test come out for CCOC(=O)C1CCC(=O)N1C(=O)c1ccc(Cl)cc1 (configuration not stated) ?
false (0)

How did this test come out for COc1ccc(C2ON(c3ccccn3)CC=C2C)cc1 (configuration not stated) ?
false (0)

How did this test come out for C=CC(Br)(CBr)CCC(Br)C(C)(C)Br (configuration not stated) ?
false (0)

How did this test come out for `CCC[C@H](C)C[C@H](C)C[C@H](C)/C=C(\C)[C@@H](O)[C@@H](C)C(=O)CC` ?
false (0)

How did this test come out for `CCC(=O)C(C(=O)CC)c1c(OC(=O)c2ccccc2)ccc(O)c1C(=O)OC` ?
false (0)

###

Test system: K562
test description: NCI tumour cell line growth inhibition, 48 h
Activity calls are given as the source filed them. Cut-off read from the data, not from the text of the source: active = GI50 up to about 1.1 µM and inactive = higher.
reported property: GI50

Would you please look over these solved cases?
If you can, please state the reported GI50 value of `O=C(O)C(Oc1nc(S)nc(S)n1)(c1ccc(Cl)cc1)c1ccc(Cl)cc1` .
> 100 µM (inactive)

If you can, please state the reported GI50 value of `Nc1nc2[nH]cc(CCc3ccc(C(=O)N[C@@H](CCC(=O)O)C(=O)O)cc3)c2c(=O)[nH]1` .
< 0.0258 µM (active)

If you can, please state the reported GI50 value of `COc1cc(-c2nn3c(=O)n(-c4ccc(Cl)cc4)c(=O)nc3s2)cc(OC)c1OC` .
> 31.6 µM (inactive)

Quick batch: GI50 for everything below.
1. COc1cc(Cc2ccc3c(c2C#N)N(C)c2ccccc2S3)cc(OC)c1OC
2. NNC(=O)N/N=C1\CNC(=O)C(=O)C1c1nc2ccccc2s1 (centres undefined)
3. CC1CCC2(NC1)OC1CC3[C@@H]4CC=C5C=CCC[C@]5(C)C4CC[C@]3(C)C1C2C (some centres undefined)

1: 4.39 µM (inactive); 2: > 100 µM (inactive); 3: 18.5 µM (inactive)

Quick batch: GI50 for everything below.
1. CSC(=N)N1N=C2c3ccccc3CC[C@@H]2[C@@H]1c1ccccc1
2. C#C[C@]1(O)CCCC2=CC(=O)CC[C@@]21C
3. CCC(=O)O[C@H]1CC[C@H]2[C@@H]3CCC4=CC(=O)C=C[C@]4(O)[C@H]3CC[C@]12C

["6.03 µM (inactive)", "> 100 µM (inactive)", "3.39 µM (inactive)"]

###

System: LOX IMVI
test description: NCI tumour cell line growth inhibition, 48 h
The source made the active and inactive calls. Cut-off read from the data, not from the text of the source: active = GI50 up to about 1.1 µM and inactive = higher.
Answer with one of the outcomes T for active, F for inactive

These solved cases illustrate the format of a correct answer.
How did this test come out for `CCN(CC)CC(C)(C)C(=O)/C=C/c1ccc(/C=C/C(=O)C(C)(C)CN(CC)CC)cc1` ?
T

How did this test come out for `CCCN1CC=C(c2cc(C(=O)OCC)[nH]c2-c2cc(C)no2)C1=O` ?
F

How did this test come out for `CC(=O)N1C(=O)C(=O)c2cc(Cl)ccc21` ?
F

How did this test come out for C=C1C(=O)OC2C(C)C3C=CC(=O)[C@@]3(C)C(OC(=O)/C(C)=C/C)C1[C@@H]2OC(C)=O (some centres undefined) ?
T

How did this test come out for `CCOC(=O)c1c(C)[nH]c2c1c(CN(C)C)c(O)c1nc(C)c(C)nc12` ?
F

---
How did this test come out for `CCOc1ccccc1Nc1nc(C)c(C(=O)CC(=O)C(=O)Nc2ccccc2)s1` ?
F

How did this test come out for `CCOC(=O)/C=C(/C(=O)OCC)n1cc(C)c(=O)[nH]c1=O` ?
F

How did this test come out for Cc1ccc(NC(=O)C2C3CCC(O3)C2C(=O)O)cc1 (centres undefined) ?
F

How did this test come out for `CC(=O)c1ccc(Nc2nc3ccccc3c3occc23)cc1` ?
F

###

System: SF-295
test description: NCI tumour cell line growth inhibition, 48 h
Calls of active or inactive are those of the source. Cut-off read from the data, not from the text of the source: active = GI50 up to about 1.1 µM and inactive = higher.
reported property: GI50

Would you please look over these solved cases?
Tell me reported GI50 for CC1(C)OC1CC/C(=C/CBr)CBr (configuration not stated) , tested with SF-295.
14.1 µM (inactive)

Tell me reported GI50 for COc1cc2c(cc1Oc1ccc(OC)c3c1CC1c4c(cc(OC)c(OC)c4-3)CCN1C)CC1c3c(cc(OC)c(OC)c3-2)CCN1C (configuration not stated) , tested with SF-295.
2.54 µM (inactive)

Tell me reported GI50 for c1ccc2c(c1)nc1n2C2CCC(C2)N1 (configuration not stated) , tested with SF-295.
> 10 µM (inactive)

Tell me reported GI50 for `C=CCn1c(-c2ccc(-c3cs/c(=N\N=O)n3CC=C)cc2)cs/c1=N\N=O` , tested with SF-295.
91 µM (inactive)

Tell me reported GI50 for `CCN(CC)CCNc1ccc2ncn3c4c(OC)cccc4c(=O)c1c23` , tested with SF-295.
10.4 µM (inactive)

Tell me reported GI50 for `N#CC(C#N)=C1NC(=O)CC(=O)N1` , tested with SF-295.
> 100 µM (inactive)

Quick batch: GI50 for everything below.
1. O=C(NO)NCCCl
2. COc1cc(-c2cc(=O)c3ccccc3o2)ccc1N
3. N#CC(C(=O)C(=O)Nc1ccccc1)c1ccccc1 (configuration not stated)
4. Cc1cc(O)nc(CNC(=O)c2cccc(C(=O)NCc3cc(O)nc(C)n3)c2)n1
5. CCCCCNC(=O)c1cc2cc(CCl)ccc2oc1=O

1: > 100 µM (inactive); 2: 46.7 µM (inactive); 3: > 100 µM (inactive); 4: > 100 µM (inactive); 5: 6.56 µM (inactive)

Tell me reported GI50 for `O=C(c1ccccc1F)c1c(NCc2ccccc2)c(=O)c1=O` , tested with SF-295.
> 100 µM (inactive)
